Target: T1, recombinant murine midkine (muMK) (murine, UniProt P12025 23-140)
T1 construct: also called murine MK; Murine MK
T1 sequence (looked up): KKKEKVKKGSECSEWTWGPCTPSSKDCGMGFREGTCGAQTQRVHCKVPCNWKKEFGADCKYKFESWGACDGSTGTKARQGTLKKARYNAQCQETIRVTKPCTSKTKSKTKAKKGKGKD
Experiment: ELISA, plate coated with muMK
pEC50: −log10 of the molar value.
Reported Property: pEC50

- IP14-H6L4 (antibody, V domains shown, also called Hv6 Lv4) VH: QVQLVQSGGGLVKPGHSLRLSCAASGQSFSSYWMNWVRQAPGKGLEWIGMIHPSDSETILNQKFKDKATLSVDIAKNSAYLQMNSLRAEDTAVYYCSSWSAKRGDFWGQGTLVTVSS VL: EIVLTQSPDFQSVTPKEKVNITCRASESISNNLHWYQQKPHQSPKLLIYYASQSISGVPSRFSGSGSGTDFNLTINSVEAEDAATYYCQQSNSWPLTFGGGTKLEIKR: 10.29
- IP14-H6L1 (antibody, V domains shown, also called Hv6 Lv1) VH: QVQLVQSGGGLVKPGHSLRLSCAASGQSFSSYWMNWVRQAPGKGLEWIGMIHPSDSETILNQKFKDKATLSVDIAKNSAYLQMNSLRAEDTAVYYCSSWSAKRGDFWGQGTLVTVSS VL: EIVLTQSPATLSLSPGERANLSCRASESISNNLHWYQQKPHQAPRLLIKYASQSISGIPARFSGSGPGTDFNLTISSVEPEDFAVYYCQQSNSWPLTFGGGTKLEIKR: 10.49
- IP14-H2L4 (antibody, V domains shown, also called Hv2 Lv4) VH: QVQLVQSGAEVKKPGASVKVSCKASGQSFSSYWMNWVRQAPGQGLEWIGMIHPSDSETILNQKFKDKATLTVDISTSTAYMELSSLRSEDTAVYYCSSWSAKRGDFWGQGTLVTVSS VL: EIVLTQSPDFQSVTPKEKVNITCRASESISNNLHWYQQKPHQSPKLLIYYASQSISGVPSRFSGSGSGTDFNLTINSVEAEDAATYYCQQSNSWPLTFGGGTKLEIKR: 10.11

Origin of the recorded values: patent US20170240628A1
